Source: patent US20150361164A1

- tested_system: T1, bovine thymus-derived HMGB1 (bovine, UniProt P10103 2-215)
- T1 construct: Bought protein from tissue
- T1 sequence (looked up): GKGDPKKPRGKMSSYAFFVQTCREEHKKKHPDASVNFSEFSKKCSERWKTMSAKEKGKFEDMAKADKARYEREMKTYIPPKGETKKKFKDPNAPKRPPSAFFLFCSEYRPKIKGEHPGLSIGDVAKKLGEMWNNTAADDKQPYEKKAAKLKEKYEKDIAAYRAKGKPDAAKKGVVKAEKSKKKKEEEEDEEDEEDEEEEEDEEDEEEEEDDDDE
- test_protocol: ELISA on HMGB1-immobilized immunoplate, antibodies adjusted to an equal concentration; OD as % of #10-22 chimera (source of the HMGB1 not named for this figure)
observed_property: binding result

[
  {
    "binder": "S59P (antibody, human IgG1, lambda, V domains shown, co-expressed with the #10-22 chimeric antibody H chain in CHO-K1 cells; also called #10-22 chimeric antibody (L chain) site substitution variant S59P) VH: AVQLVESGGGLVQPKESLKISCAASGFTFSNAAMYWVRQAPGKGLEWVARIRTKPNNYATYYADSVKGRFTISRDDSKSMVYLQMDNLKTEDTAMYYCTAPRRTEGIVSSGVDYWGQGVMVTVSS VL: YELIQPPSASVTLGNTVSITCSGDELPKRYAYWYQQKPDKSIVRVIYKDSERPSGIPDRFSGSSSGTTATLTIRDTQAEDEADYYCHSTYSDDKLPVFGGGTKLTVLG",
    "result": "binds"
  },
  {
    "binder": "R76S (antibody, human IgG1, lambda, V domains shown, co-expressed with the #10-22 chimeric antibody H chain in CHO-K1 cells; also called #10-22 chimeric antibody (L chain) site substitution variant R76S) VH: AVQLVESGGGLVQPKESLKISCAASGFTFSNAAMYWVRQAPGKGLEWVARIRTKPNNYATYYADSVKGRFTISRDDSKSMVYLQMDNLKTEDTAMYYCTAPRRTEGIVSSGVDYWGQGVMVTVSS VL: YELIQPPSASVTLGNTVSITCSGDELPKRYAYWYQQKPDKSIVRVIYKDSERPSGISDRFSGSSSGTTATLTISDTQAEDEADYYCHSTYSDDKLPVFGGGTKLTVLG",
    "result": "binds"
  },
  {
    "binder": "K42Q (antibody, human IgG1, lambda, V domains shown, co-expressed with the #10-22 chimeric antibody H chain in CHO-K1 cells; also called #10-22 chimeric antibody (L chain) site substitution variant K42Q) VH: AVQLVESGGGLVQPKESLKISCAASGFTFSNAAMYWVRQAPGKGLEWVARIRTKPNNYATYYADSVKGRFTISRDDSKSMVYLQMDNLKTEDTAMYYCTAPRRTEGIVSSGVDYWGQGVMVTVSS VL: YELIQPPSASVTLGNTVSITCSGDELPKRYAYWYQQKPDQSIVRVIYKDSERPSGISDRFSGSSSGTTATLTIRDTQAEDEADYYCHSTYSDDKLPVFGGGTKLTVLG",
    "result": "binds"
  },
  {
    "binder": "D60E (antibody, human IgG1, lambda, V domains shown, co-expressed with the #10-22 chimeric antibody H chain in CHO-K1 cells; also called #10-22 chimeric antibody (L chain) site substitution variant D60E) VH: AVQLVESGGGLVQPKESLKISCAASGFTFSNAAMYWVRQAPGKGLEWVARIRTKPNNYATYYADSVKGRFTISRDDSKSMVYLQMDNLKTEDTAMYYCTAPRRTEGIVSSGVDYWGQGVMVTVSS VL: YELIQPPSASVTLGNTVSITCSGDELPKRYAYWYQQKPDKSIVRVIYKDSERPSGISERFSGSSSGTTATLTIRDTQAEDEADYYCHSTYSDDKLPVFGGGTKLTVLG",
    "result": "binds"
  }
]
